- Tested on: Yap1 mRNA
- assay.comment: Antisense inhibition of human Yap1 in A-431 cells by cEt gapmers, single dose (Example 2, RTS4814)
- Type: cell-based
- condition.description: Table 32; Yap1 mRNA, percent of untreated control; 3-10-3 cEt gapmers targeting SEQ ID NO.: 1, and 2
Strand notation (5' to 3'): a small letter for the sugar, then the base; units joined by * are phosphorothioate-linked, units joined directly phosphodiester-linked; [ ] holds rarer units or linkages, { } end groups; capitals alone tell only the bases. k = constrained ethyl (cEt); [5mC] = 5-methylcytosine; d = 2'-deoxy (DNA)
just bin them by YAP1 (% UTC): band 1 (below 9 % UTC), band 2 (9 % UTC to below 20 % UTC), band 3 (20 % UTC or more)

substance | class.label
1075506 (k[5mC]*kA*kT*dA*dA*dA*dG*dG*dT*dG*dA*d[5mC]*dA*kG*k[5mC]*k[5mC]; antisense) [compound 1075506] | band 3
1075826 (kT*kA*kG*dG*dG*dA*dA*dA*dA*d[5mC]*d[5mC]*dA*dT*kA*kG*k[5mC]; antisense) [compound 1075826] | band 3

Ask: Textbook exercise: identify the category of the substance given here, 1074418 (kT*kT*k[5mC]*dT*dT*dT*dA*dG*dA*dG*d[5mC]*d[5mC]*dA*kA*k[5mC]*kT; antisense) [compound 1074418] , according to its measured value.
Result: band 1

Ask: Kindly identify the class of 1075922 (antisense kG*k[5mC]*k[5mC]*d[5mC]*dA*dA*dA*dA*dT*dA*dG*dG*dA*kT*kA*k[5mC]) [compound 1075922] .
Result: band 3

Ask: Categorize the following entry: 1075538 (kG*kA*kA*dT*dT*dG*dG*dA*dA*d[5mC]*dA*d[5mC]*d[5mC]*kT*k[5mC]*kA; antisense) [compound 1075538]
Result: band 3

Ask: Kindly state the category for this substance: 1076114 (kA*kT*kT*dA*dG*dT*dA*dA*dG*d[5mC]*dT*dG*dA*kG*kG*kA; antisense) [compound 1076114]
Result: band 1

Ask: # bin lookup: classify 1075378 (antisense kA*kA*kA*dA*d[5mC]*dT*dA*dA*dT*d[5mC]*dA*dT*d[5mC]*kG*kA*kT) [compound 1075378] by its YAP1 (% UTC)
Result: band 3

Ask: Please classify: 1074226 (antisense k[5mC]*kT*kG*dT*d[5mC]*dG*dA*dA*dG*dA*dT*dG*d[5mC]*kT*kG*kA) [compound 1074226]
Result: band 2

Ask: Please classify: 1074610 (DNA kT*k[5mC]*kT*dA*dG*dT*dT*dA*d[5mC]*dA*dT*d[5mC]*dA*kT*k[5mC]*kT) [compound 1074610]
Result: band 1

Ask: Which class does 1076434 (k[5mC]*kT*kT*dT*dA*dG*dG*dT*dT*dT*dA*dT*dG*k[5mC]*k[5mC]*kT; antisense) [compound 1076434] fall in?
Result: band 3

Ask: Which band does 1076530 (kA*kG*kT*dA*dT*dA*dA*dA*dG*d[5mC]*dA*dG*dG*kG*k[5mC]*kA; antisense) [compound 1076530] fall in?
Result: band 1

Ask: In plain terms, what class is 1074738 (k[5mC]*kT*kT*d[5mC]*dA*dG*dG*dT*d[5mC]*dA*dG*dT*dA*k[5mC]*kA*kG; antisense) [compound 1074738] ?
Result: band 2

----------
- Tested on: Yap1 mRNA
- assay.comment: Antisense inhibition of human Yap1 in A-431 cells by cEt gapmers, single dose (Example 2, RTS4814)
- Type: cell-based
- condition.description: Table 25; Yap1 mRNA as percent of untreated control; 3-10-3 cEt gapmers targeting SEQ ID NO.: 1, and 2
Strand notation (5' to 3'): a small letter for the sugar, then the base; units joined by * are phosphorothioate-linked, units joined directly phosphodiester-linked; [ ] holds rarer units or linkages, { } end groups; capitals alone tell only the bases. k = constrained ethyl (cEt); [5mC] = 5-methylcytosine; d = 2'-deoxy (DNA)
Hi, to clarify the labels: Satisfied covers YAP1 (% UTC) from 30 % UTC upward, Not satisfied covers anything below 30 % UTC.

substance | class.label
1076331 (k[5mC]*kA*kT*dT*dA*dT*dT*d[5mC]*dA*dG*dT*dA*dG*kT*kT*kG; antisense) [Compound 1076331] | Satisfied

Ask: # check: YAP1 (% UTC) of 1075339 (kA*k[5mC]*k[5mC]*d[5mC]*dA*dA*dA*dA*dA*d[5mC]*dT*dA*dG*k[5mC]*kT*kT; antisense) [Compound 1075339] is greater than or equal to 30 % UTC
Result: Satisfied

Ask: Identify whether the reported YAP1 (% UTC) of the following substance is 30 % UTC or greater: 1075275 (antisense k[5mC]*kT*kA*dG*dA*dA*dA*dG*dG*d[5mC]*d[5mC]*dA*dT*kG*kT*kA) [Compound 1075275]
Result: Satisfied

Ask: Determine whether measured YAP1 (% UTC) meets or exceeds 30 % UTC for 1075659 (kA*kA*kG*dT*dA*dA*dA*dA*dA*dA*d[5mC]*dG*dG*kT*kT*kT; antisense) [Compound 1075659]
Result: Satisfied

Ask: Determine whether this substance has YAP1 (% UTC) no lower than 30 % UTC: 1074571 (antisense kT*kA*kT*dG*dA*dA*d[5mC]*d[5mC]*dT*dA*d[5mC]*dT*d[5mC]*kA*k[5mC]*kT) [Compound 1074571]
Result: Satisfied

----------
- Tested on: Yap1 mRNA
- assay.comment: Dose-dependent inhibition of human Yap1 in A-431 cells (Example 7, 10,000 cells per well, RTS36584)
- Format: cell-based
- condition.description: Table 61, A-431 cells 10,000 cells per well, free uptake
Strand notation (5' to 3'): a small letter for the sugar, then the base; units joined by * are phosphorothioate-linked, units joined directly phosphodiester-linked; [ ] holds rarer units or linkages, { } end groups; capitals alone tell only the bases. k = constrained ethyl (cEt); [5mC] = 5-methylcytosine; d = 2'-deoxy (DNA)
As shown below, each of these substances has a reported IC50 value.

Example cases with answers are listed next.
substance | IC50
958644 (kA*kT*kG*dA*dT*d[5mC]*dA*dA*dA*d[5mC]*d[5mC]*dT*dT*kT*kT*k[5mC]; antisense) [compound 958644] | 300 nM
958739 (kA*kG*k[5mC]*dA*dA*dT*dA*dG*dA*dG*dT*dA*dA*k[5mC]*k[5mC]*kA; antisense) [compound 958739] | 100 nM
715483 (k[5mC]*kT*k[5mC]*dT*dT*dT*dG*dG*dA*dA*dA*d[5mC]*d[5mC]*kA*kT*kT) [compound 715483] | 100 nM
958484 (kG*k[5mC]*kA*dG*d[5mC]*dA*dA*dT*dG*dG*dA*d[5mC]*dA*kA*kG*kG; antisense) [compound 958484] | 50 nM
958589 (kG*kT*kA*dA*dA*dG*dG*dA*dA*dG*dA*dT*d[5mC]*kT*k[5mC]*k[5mC]; antisense) [compound 958589] | 100 nM

Okay, now this substance:
// 958499 (ATTAGAGTATGTGGCA; 3-10-3 cEt gapmer, further chemistry not given here) [compound 958499] : IC50 value = < 10 nM

----------
- Test system: Yap1 mRNA
- assay.comment: Dose-dependent inhibition of human Yap1 in A-431 cells (Example 7, 10,000 cells per well, RTS36584)
- Assay type: cell-based
- condition.description: Table 61, 4000.00 nM, free uptake, A-431 cells 10,000 cells per well, 48 hours
- Method: Modified oligonucleotides described in the studies above were tested at various doses in A-431 cells. […] After approximately 48 hours, Yap1 mRNA levels were measured as previously described using the Human Yap1 primer-probe set RTS36584. Yap1 mRNA levels were normalized to total RNA content, as measured by RIBOGREEN®. […] IC50s were calculated using a linear regression on a log/linear plot of the data in excel.
Strand notation (5' to 3'): a small letter for the sugar, then the base; units joined by * are phosphorothioate-linked, units joined directly phosphodiester-linked; [ ] holds rarer units or linkages, { } end groups; capitals alone tell only the bases. k = constrained ethyl (cEt); [5mC] = 5-methylcytosine; d = 2'-deoxy (DNA)
attribute.measured: Yap1 mRNA, % UTC (% UTC)
Give the number; % UTC is assumed, so skip it.

These solved cases illustrate the format of a correct answer.
substance | attribute.measured | assay.value
958614 (kG*kT*k[5mC]*dT*dT*dG*dT*dT*d[5mC]*dT*dT*dA*dT*kG*kG*kT; antisense) [compound 958614] | Yap1 mRNA, % UTC | 13
958499 (ATTAGAGTATGTGGCA; 3-10-3 cEt gapmer, further chemistry not given here) [compound 958499] | Yap1 mRNA, % UTC | 1
958739 (kA*kG*k[5mC]*dA*dA*dT*dA*dG*dA*dG*dT*dA*dA*k[5mC]*k[5mC]*kA; antisense) [compound 958739] | Yap1 mRNA, % UTC | 7
958799 (kA*kT*kT*dA*d[5mC]*dT*d[5mC]*dA*dA*dT*d[5mC]*dA*dT*kG*kG*kT; antisense) [compound 958799] | Yap1 mRNA, % UTC | 10
958454 (antisense kG*kG*kA*dA*dT*dG*dA*dG*d[5mC]*dT*d[5mC]*dG*dA*kA*k[5mC]*kA) [compound 958454] | Yap1 mRNA, % UTC | 4

Here is the next item to consider.
The reported Yap1 mRNA Yap1 mRNA, % UTC of 715483 (k[5mC]*kT*k[5mC]*dT*dT*dT*dG*dG*dA*dA*dA*d[5mC]*d[5mC]*kA*kT*kT) [compound 715483] is 4
